Reference source: patent US8546377B2

TARGET OR TEST SYSTEM: 5HT2C receptors (Homo sapiens, UniProt P28335)
Sequence (P28335 33-458): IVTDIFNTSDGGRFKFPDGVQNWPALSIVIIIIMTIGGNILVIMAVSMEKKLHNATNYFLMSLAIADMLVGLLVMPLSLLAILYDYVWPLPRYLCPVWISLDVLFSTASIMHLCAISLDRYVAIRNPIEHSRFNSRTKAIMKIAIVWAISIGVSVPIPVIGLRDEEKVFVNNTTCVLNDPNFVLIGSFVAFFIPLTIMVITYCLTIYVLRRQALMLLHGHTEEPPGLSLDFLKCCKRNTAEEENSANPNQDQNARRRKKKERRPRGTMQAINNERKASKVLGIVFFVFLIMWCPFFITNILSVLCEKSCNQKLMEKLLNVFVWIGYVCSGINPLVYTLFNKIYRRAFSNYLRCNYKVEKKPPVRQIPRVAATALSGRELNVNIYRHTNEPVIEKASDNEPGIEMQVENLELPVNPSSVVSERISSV
PROCEDURE SUMMARY: Human 5-HT2C functional assay in 1321N1 cells (intracellular calcium, FLIPR)
Format: cell-based
Design: expressed in transfected cells; host or cells: 1321N1 cells
MEASUREMENT CONTEXT: 1321N1 cells; percentage relative to the effect of serotonin; read-out: Emax (%), 5-HT2c Agonist Activity
Can you tell me Emax for the items I'm about to list?
Return type: number; implicit unit %.

Checklist item: Emax tested on 5HT2C receptors (Homo sapiens, UniProt P28335), entry Cc1cccc2c1NC(=O)CC1CNCCN21 (stereo not shown) [Example 40] , value?
89.5

Please do the same for Clc1ccc2c(c1)N1CCNCC1CCN2 (stereo not shown) [Example 18] as well.
108

Repeat with O=C1CC2CNCCN2c2cc(/C=C/c3cccc(Cl)c3)ccc2N1 (stereo not shown) [Example 25]
101

Okay, and COc1ccc2c(c1)N1CCNC[C@@H]1CC(=O)N2 [Example 43] ?
86

Param item: Clc1cc2c(cc1Cl)N1CCNCC1CCN2 (stereo not shown) [Example 16]
91

For O=C1NCC2CNCCN2c2ccccc21 (stereo not shown) [Example 46] then?
93

Cool, now O=C1CC2CNCCN2c2ccc(F)cc2N1 (stereo not shown) [Example 34]
100

Same read-out for O=C1CC2CNCCN2c2cc(/C=C/c3ccc(F)cc3)ccc2N1 (stereo not shown) [Example 26] ?
98.5

Entry to check: CN1C(=O)CC2CNCCN2c2ccccc21 (stereo not shown) [Example 20]
103

What would you report for O=C1CC2CNCCN2c2cccc(F)c2N1 (stereo not shown) [Example 32] ?
102

Ok, now O=C1CC2CNCCN2c2cc(/C=C/c3ccc(F)cc3F)ccc2N1 (stereo not shown) [Example 28]
92

Try the compound CCN1CCN2c3ccccc3NC(=O)CC2C1 (stereo not shown) [Example 23]
87

Also check O=C1CC2CNCCN2c2c(Br)cccc2N1 (stereo not shown) [Example 30]
113

Also need CN1CCN2c3ccccc3NC(=O)CC2C1 (stereo not shown) [Example 38] , thanks.
68

Also O=C1C[C@H]2CNCCN2c2cc(Cl)ccc2N1 [Example 41] ?
99.5

Item: O=C1C[C@H]2CNCCN2c2cc(CCc3ccccc3)ccc2N1 [Example 42]
95

Try this compound too: O=C1CC2CNCCN2c2cc(-c3cccc(Cl)c3)ccc2N1 (stereo not shown) [Example 7]
86

Another compound to look at: O=C1CC2CNCCN2c2cc(Br)ccc2N1 (stereo not shown) [Example 4]
92

Likewise for N#Cc1ccc2c(c1)N1CCNCC1CC(=O)N2 (stereo not shown) [Example 11] ?
104

Lookup Cc1ccc2c(c1)N1CCNC[C@@H]1CC(=O)N2 [Example 36]
104

How about COc1ccc2c(c1)N1CCNCC1CC(=O)N2 (stereo not shown) [Example 12] ?
83.5

Next record, please: O=C1CC2CNCCN2c2cc(-c3ccccc3)ccc2N1 (stereo not shown) [Example 5]
86
